- Assay type: in vivo, human
- runParameters: human, plasma, oral, 150 mg, t1/2, Day 14; 150 mg once daily; moderate hepatic impairment; geometric mean (SD)
quantity: half-life (h)
A number alone suffices; assume h.

response.value for `CCCCOCCOc1ccc(-c2ccc3c(c2)/C=C(/C(=O)Nc2ccc([S@@+]([O-])Cc4cncn4CCC)cc2)CCCN3CC(C)C)cc1` (field: half-life) = 37.6

----------
- Type: in vivo, human
- runParameters: human, plasma, oral, 150 mg, t1/2, Day 14; 150 mg once daily; matched controls (moderate); geometric mean (SD)
quantity: half-life (h)
A number alone suffices; assume h.

response.value for `CCCCOCCOc1ccc(-c2ccc3c(c2)/C=C(/C(=O)Nc2ccc([S@@+]([O-])Cc4cncn4CCC)cc2)CCCN3CC(C)C)cc1` (field: half-life) = 22.4

----------
- Type: in vivo, human
- runParameters: human, plasma, oral, 150 mg, t1/2, Day 14; 150 mg once daily; mild hepatic impairment; geometric mean (SD)
quantity: half-life (h)
A number alone suffices; assume h.

response.value for `CCCCOCCOc1ccc(-c2ccc3c(c2)/C=C(/C(=O)Nc2ccc([S@@+]([O-])Cc4cncn4CCC)cc2)CCCN3CC(C)C)cc1` (field: half-life) = 29.7

----------
- Assay type: in vivo, human
- runParameters: human, plasma, oral, 150 mg, AUC0–∞, Day 14; 150 mg once daily; mild hepatic impairment; geometric mean (SD)
quantity: AUC(0-inf) (ng·h/mL)
A number alone suffices; assume ng·h/mL.

response.value for `CCCCOCCOc1ccc(-c2ccc3c(c2)/C=C(/C(=O)Nc2ccc([S@@+]([O-])Cc4cncn4CCC)cc2)CCCN3CC(C)C)cc1` (field: AUC(0-inf)) = 14600

----------
- Type: in vivo, human
- runParameters: human, plasma, oral, 150 mg, Vz/F, Day 14; 150 mg once daily; moderate hepatic impairment; geometric mean (SD)
quantity: Vd/F (L)
A number alone suffices; assume L.

response.value for `CCCCOCCOc1ccc(-c2ccc3c(c2)/C=C(/C(=O)Nc2ccc([S@@+]([O-])Cc4cncn4CCC)cc2)CCCN3CC(C)C)cc1` (field: Vd/F) = 886

----------
- Type: in vivo, human
- runParameters: human, plasma, oral, 150 mg, Cmin, Day 14; 150 mg once daily; mild hepatic impairment; geometric mean (SD)
quantity: concentration at 14 day (ng/mL)
A number alone suffices; assume ng/mL.

response.value for `CCCCOCCOc1ccc(-c2ccc3c(c2)/C=C(/C(=O)Nc2ccc([S@@+]([O-])Cc4cncn4CCC)cc2)CCCN3CC(C)C)cc1` (field: concentration at 14 day) = 180

----------
- Assay type: in vivo, human
- runParameters: human, plasma, oral, 150 mg, Vz/F, Day 1; 150 mg; mild hepatic impairment; geometric mean (SD)
quantity: Vd/F (L)
A number alone suffices; assume L.

response.value for `CCCCOCCOc1ccc(-c2ccc3c(c2)/C=C(/C(=O)Nc2ccc([S@@+]([O-])Cc4cncn4CCC)cc2)CCCN3CC(C)C)cc1` (field: Vd/F) = 329
